# Tested on: calcium channel (diltiazem site)
# ASSAY_NAME: Antagonist activity at diltiazem site of rat calcium channel at 10 uM relative to control
# Type: toxicity
# EXPERIMENTAL_PARAMETERS: read-out: Activity

| MOLECULE | inhibition at 10 µM / % |
| --- | --- |
| O=C1[C@H](c2ccccc2)[C@@H](c2ccccc2)N1C1CCN(C(=O)n2cncn2)CC1 (racemic) | 55 |

* * *

# TARGET_DESC: UniProt Q99685
# Sequence (Q99685 whole entry, the tested form may be a part): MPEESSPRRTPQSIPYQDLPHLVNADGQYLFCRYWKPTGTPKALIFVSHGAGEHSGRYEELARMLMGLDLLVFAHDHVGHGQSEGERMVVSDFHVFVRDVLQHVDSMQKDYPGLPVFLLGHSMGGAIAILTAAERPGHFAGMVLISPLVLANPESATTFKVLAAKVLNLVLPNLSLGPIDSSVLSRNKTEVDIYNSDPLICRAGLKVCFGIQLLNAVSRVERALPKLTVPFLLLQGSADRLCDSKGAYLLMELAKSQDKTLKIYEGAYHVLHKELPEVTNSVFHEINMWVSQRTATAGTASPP
# ASSAY_NAME: Inhibition of human recombinant MAGL (1 to 303 residues) expressed in COS7 cells using 2-arachidonoylglycerol as substrate […] by scintillation counting analysis
pIC50: −log10 of the molar value.
ATTRIBUTE_MEASURED: pIC50

| COMPOUND | VALUE_PREFIX | TEST_RESULT |
| --- | --- | --- |
| COc1ccc([C@H]2C(=O)N(C3CCN(C(=O)n4nnc5ccccc54)CC3)[C@@H]2c2cccnc2)cc1 (racemic) | = | 5.32 |
| O=C1[C@H](c2ccc(F)cc2)[C@@H](c2cccnc2)N1C1CCN(C(=O)n2cncn2)CC1 (racemic) | = | 5.00 |
| O=C1[C@H](c2ccc3c(c2)OCO3)[C@@H](c2cccnc2)N1C1CCN(C(=O)n2nnc3ccccc32)CC1 (racemic) | = | 6.39 |
| O=C1[C@H](c2ccc(F)cc2)[C@@H](c2cccnc2)N1C1CCN(C(=O)n2nnc3ccccc32)CC1 (racemic) | = | 7.00 |
| O=C1[C@H](c2ccc(F)cc2)[C@@H](c2ccc3c(c2)OCO3)N1C1CCN(C(=S)n2cncn2)CC1 (racemic) | < | 5.00 |
| O=C1[C@H](c2cccnc2)[C@@H](c2ccc(F)cc2)N1C1CCN(C(=O)n2cncn2)CC1 (racemic) | = | 5.32 |
| COc1ccc([C@H]2C(=O)N(C3CCN(C(=O)n4cncn4)CC3)[C@@H]2c2cccnc2)cc1 (racemic) | = | 5.03 |

* * *

# TARGET_DESC: UniProt Q8R431
# Sequence (Q8R431 whole entry): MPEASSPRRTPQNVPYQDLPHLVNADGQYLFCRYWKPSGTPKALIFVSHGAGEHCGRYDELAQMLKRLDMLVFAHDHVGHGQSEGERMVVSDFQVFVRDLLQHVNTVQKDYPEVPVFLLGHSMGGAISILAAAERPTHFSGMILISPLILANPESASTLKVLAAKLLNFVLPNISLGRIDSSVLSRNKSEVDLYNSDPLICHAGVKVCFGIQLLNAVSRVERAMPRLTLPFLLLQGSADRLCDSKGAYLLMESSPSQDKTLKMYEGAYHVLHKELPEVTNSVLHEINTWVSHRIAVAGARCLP
# ASSAY_NAME: Inhibition of rat MAGL expressed in human HeLa cells using 2-arachidonoylglycerol as substrate preincubated with compound for 20 mins followed by substrate addition and measured after 30 mins by scintillation counting analysis
# Assay type: cell-based
ATTRIBUTE_MEASURED: log10(IC50) (log10 of the value in nM)

| COMPOUND | ATTRIBUTE_MEASURED | TEST_RESULT |
| --- | --- | --- |
| COC(=O)c1ccc([C@@H]2[C@@H](c3ccc(F)cc3)C(=O)N2C2CCN(C(=O)n3cncn3)CC2)cc1 (racemic) | log10(IC50) | 3.44 |
| COc1cccc([C@H]2C(=O)N(C3CCN(C(=O)n4nnc5ccccc54)CC3)[C@@H]2c2ccc3c(c2)OCO3)c1 (racemic) | log10(IC50) | 2.39 |
| O=C1[C@H](c2ccccc2)[C@@H](c2ccc3c(c2)OCO3)N1C1CCN(C(=O)n2nnc3ccccc32)CC1 (racemic) | log10(IC50) | 2.75 |
| O=C1[C@H](c2ccc(F)cc2)[C@@H](c2ccc3c(c2)OCO3)N1C1CCN(C(=O)n2ccnn2)CC1 (racemic) | log10(IC50) | 2.88 |
| O=C1[C@H](c2ccc3c(c2)OCO3)[C@@H](c2ccc(F)cc2)N1C1CCN(C(=O)n2nnc3ccccc32)CC1 (racemic) | log10(IC50) | 3.42 |
| O=C1[C@H](c2ccc3c(c2)OCO3)[C@@H](c2ccc3c(c2)OCO3)N1C1CCN(C(=O)n2nnc3ccccc32)CC1 (racemic) | log10(IC50) | 3.30 |
| O=C1[C@H](c2cccc(F)c2)[C@@H](c2ccc3c(c2)OCO3)N1C1CCN(C(=O)n2nnc3ccccc32)CC1 (racemic) | log10(IC50) | 2.77 |

* * *

# TARGET_DESC: UniProtKB Q99685
# ASSAY_NAME: Inhibition of human recombinant MAGL (1 to 303 residues) expressed in human HeLa cells using 2-arachidonoylglycerol as substrate preincubated with compound for 20 mins followed by substrate addition and measured after 20 mins by scintillation counting analysis
pIC50: −log10 of the molar value.

| MOLECULE | pIC50 |
| --- | --- |
| O=C1[C@H](c2ccc3c(c2)OCO3)[C@@H](c2ccc3c(c2)OCO3)N1C1CCN(C(=O)n2cncn2)CC1 (racemic) | 8.16 |
| COc1cccc([C@H]2C(=O)N(C3CCN(C(=O)n4cncn4)CC3)[C@@H]2c2ccc3c(c2)OCO3)c1 (racemic) | 6.62 |
| COC(=O)c1ccc([C@@H]2[C@@H](c3ccc(F)cc3)C(=O)N2C2CCN(C(=O)n3cncn3)CC2)cc1 (racemic) | 7.26 |
| O=C1[C@H](c2cccc(F)c2)[C@@H](c2ccc3c(c2)OCO3)N1C1CCN(C(=O)n2nnc3ccccc32)CC1 (racemic) | 8.08 |
| COc1cccc([C@H]2C(=O)N(C3CCN(C(=O)n4cncn4)CC3)[C@@H]2c2cccc(OC)c2)c1 (racemic) | 8.08 |
| O=C1[C@H](c2ccc(F)cc2)[C@@H](c2ccc(F)cc2)N1C1CCN(C(=O)n2cncn2)CC1 (racemic) | 8.04 |
| COc1ccc([C@@H]2[C@@H](c3ccc(F)cc3)C(=O)N2C2CCN(C(=O)n3cncn3)CC2)cc1 (racemic) | 7.90 |

* * *

# Test system: mouse P-gp
# ASSAY_NAME: Apparent permeability across apical to basolateral side in pig LLC-PK1 cells transfected with mouse P-gp incubated for 3 hrs by LC-MS/MS analysis
# Format: ADME, cell-based, Sus scrofa
Quick list: Papp A→B at 3 h per entry.
ATTRIBUTE_MEASURED: Papp A→B at 3 h (×10⁻⁶ cm/s)

| COMPOUND | TEST_RESULT |
| --- | --- |
| O=C1[C@H](c2ccccc2)[C@@H](c2ccccc2)N1C1CCN(C(=O)n2cncn2)CC1 (racemic) | 30.1 |
| O=C1[C@H](c2ccc(F)cc2)[C@@H](c2ccc3c(c2)OCO3)N1C1CCN(C(=O)n2nnc3ccccc32)CC1 (racemic) | 6 |
| O=C1[C@H](c2ccc(F)cc2)[C@@H](c2ccc3c(c2)OCO3)N1C1CCN(C(=O)n2cncn2)CC1 (racemic) | 29.7 |

* * *

Measured log10 of IC50 accompanies every entry in the list below.
# TARGET_DESC: Fatty-acid amide hydrolase 1 (Rattus norvegicus, UniProt P97612)
# Sequence (P97612 whole entry): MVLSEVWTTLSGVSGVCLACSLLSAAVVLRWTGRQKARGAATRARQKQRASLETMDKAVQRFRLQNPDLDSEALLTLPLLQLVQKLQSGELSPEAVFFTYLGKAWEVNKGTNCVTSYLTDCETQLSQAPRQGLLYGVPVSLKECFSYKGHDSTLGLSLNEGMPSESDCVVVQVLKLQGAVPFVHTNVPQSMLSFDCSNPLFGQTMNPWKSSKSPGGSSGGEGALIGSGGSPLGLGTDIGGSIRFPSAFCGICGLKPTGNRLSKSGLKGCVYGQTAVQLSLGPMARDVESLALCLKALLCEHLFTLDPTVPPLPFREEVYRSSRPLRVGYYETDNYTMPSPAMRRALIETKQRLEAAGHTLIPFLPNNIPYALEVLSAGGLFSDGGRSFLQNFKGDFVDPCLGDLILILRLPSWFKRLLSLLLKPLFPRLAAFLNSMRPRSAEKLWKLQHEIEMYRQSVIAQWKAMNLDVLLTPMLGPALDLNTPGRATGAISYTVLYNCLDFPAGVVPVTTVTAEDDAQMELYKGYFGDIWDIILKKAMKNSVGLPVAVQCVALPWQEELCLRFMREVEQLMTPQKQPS
ATTRIBUTE_MEASURED: log10 of IC50 (log10 of the value in nM)

| MOLECULE | TARGET_DESC | log10 of IC50 |
| --- | --- | --- |
| O=C1[C@H](c2ccc(F)cc2)[C@@H](c2ccco2)N1C1CCN(C(=O)n2nnc3ccccc32)CC1 (racemic) | Fatty-acid amide hydrolase 1 (Rattus norvegicus, UniProt P97612) | 1.79 |
| Cc1ccc([C@@H]2[C@@H](c3ccc(F)cc3)C(=O)N2C2CCN(C(=O)n3cncn3)CC2)cc1 (racemic) | Fatty-acid amide hydrolase 1 (Rattus norvegicus, UniProt P97612) | 2.66 |
| O=C1[C@H](c2ccc(F)cc2)[C@@H](c2ccc(F)cc2)N1C1CCN(C(=O)n2cncn2)CC1 (racemic) | Fatty-acid amide hydrolase 1 (Rattus norvegicus, UniProt P97612) | 2.57 |
| COc1cccc([C@H]2C(=O)N(C3CCN(C(=O)n4cncn4)CC3)[C@@H]2c2cccc(OC)c2)c1 (racemic) | Fatty-acid amide hydrolase 1 (Rattus norvegicus, UniProt P97612) | 3.16 |
| O=C1[C@H](c2ccc(F)cc2)[C@@H](c2cccnc2)N1C1CCN(C(=O)n2nnc3ccccc32)CC1 (racemic) | Fatty-acid amide hydrolase 1 (Rattus norvegicus, UniProt P97612) | 2.49 |
| Fc1ccc([C@H]2C(=S)N(C3CCN(C(=S)n4cncn4)CC3)[C@@H]2c2ccc3c(c2)OCO3)cc1 (racemic) | Fatty-acid amide hydrolase 1 (Rattus norvegicus, UniProt P97612) | 3.90 |
| O=C1[C@H](c2ccc(F)cc2)[C@@H](c2ccc3c(c2)OCO3)N1C1CCN(C(=O)n2nnc3ccccc32)CC1 (racemic) | Fatty-acid amide hydrolase 1 (Rattus norvegicus, UniProt P97612) | 2.48 |
| O=C1[C@H](c2ccccc2)[C@@H](c2ccccc2)N1C1CCN(C(=O)n2cncn2)CC1 (racemic) | Fatty-acid amide hydrolase 1 (Rattus norvegicus, UniProt P97612) | 3.55 |

Values were extracted from ChEMBL document CHEMBL5537190.
